Just for reference, patent US20240084003A1 is where these values come from.

# SYSTEM TESTED: T1, monkey CD22 on HEK293T-monkey CD22 cells (monkey)
# T1 construct: full-length entry expressed on stably transfected HEK293T cells
# T1 chain: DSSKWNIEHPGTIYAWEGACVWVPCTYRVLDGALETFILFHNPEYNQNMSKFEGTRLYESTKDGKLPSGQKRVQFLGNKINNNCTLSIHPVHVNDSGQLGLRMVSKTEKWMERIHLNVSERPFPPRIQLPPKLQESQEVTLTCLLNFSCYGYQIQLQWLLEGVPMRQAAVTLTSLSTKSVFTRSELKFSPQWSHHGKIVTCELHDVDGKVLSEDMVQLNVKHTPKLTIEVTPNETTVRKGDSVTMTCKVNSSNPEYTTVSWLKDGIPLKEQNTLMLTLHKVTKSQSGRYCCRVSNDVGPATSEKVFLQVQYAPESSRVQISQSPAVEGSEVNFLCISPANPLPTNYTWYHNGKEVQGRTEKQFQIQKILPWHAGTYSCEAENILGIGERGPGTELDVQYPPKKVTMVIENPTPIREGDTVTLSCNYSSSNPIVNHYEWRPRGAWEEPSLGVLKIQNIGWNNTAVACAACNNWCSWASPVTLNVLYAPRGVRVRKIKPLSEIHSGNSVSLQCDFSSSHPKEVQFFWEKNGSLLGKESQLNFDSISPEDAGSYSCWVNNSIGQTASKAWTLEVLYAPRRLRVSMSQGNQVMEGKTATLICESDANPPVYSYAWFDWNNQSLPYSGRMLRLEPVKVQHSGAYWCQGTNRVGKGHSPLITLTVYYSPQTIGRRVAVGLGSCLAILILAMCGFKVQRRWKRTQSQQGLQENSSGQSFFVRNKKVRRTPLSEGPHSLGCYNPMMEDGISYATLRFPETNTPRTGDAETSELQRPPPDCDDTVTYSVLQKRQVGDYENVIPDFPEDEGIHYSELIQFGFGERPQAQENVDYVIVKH
# ASSAY INFO: FACS, HEK293T-monkey CD22 cells
ASSAY READOUT: Maximum mean fluorescence intensity (MFI)
Write the number in MFI without appending the unit.

In plain terms, F1.192.1 (antibody, human IgG1, kappa, V domains shown, human-murine chimeric IgG1 kappa) VH: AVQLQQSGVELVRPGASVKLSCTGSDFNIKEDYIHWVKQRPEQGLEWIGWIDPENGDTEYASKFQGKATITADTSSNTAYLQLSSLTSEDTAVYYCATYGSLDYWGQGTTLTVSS VL: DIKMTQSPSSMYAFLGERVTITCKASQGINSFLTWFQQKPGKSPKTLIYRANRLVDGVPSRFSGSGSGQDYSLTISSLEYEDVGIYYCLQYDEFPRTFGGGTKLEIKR has a documented Maximum mean fluorescence intensity of 16300

In plain terms, F1.245.2 (antibody, human IgG1, kappa, V domains shown, human-murine chimeric IgG1 kappa) VH: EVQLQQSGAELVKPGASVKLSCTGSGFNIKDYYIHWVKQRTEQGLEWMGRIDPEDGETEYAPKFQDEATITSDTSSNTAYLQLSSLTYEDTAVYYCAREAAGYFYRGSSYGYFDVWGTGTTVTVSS VL: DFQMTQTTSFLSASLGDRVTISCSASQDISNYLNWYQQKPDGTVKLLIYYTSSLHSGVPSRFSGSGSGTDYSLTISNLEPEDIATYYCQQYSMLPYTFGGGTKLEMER has a documented Maximum mean fluorescence intensity of 124

In plain terms, F1.257.3 (antibody, human IgG1, kappa, V domains shown, human-murine chimeric IgG1 kappa; VL name legible) VH: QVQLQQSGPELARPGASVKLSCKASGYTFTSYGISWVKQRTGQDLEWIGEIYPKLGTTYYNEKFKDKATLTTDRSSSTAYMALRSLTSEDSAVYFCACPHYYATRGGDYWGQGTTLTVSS VL: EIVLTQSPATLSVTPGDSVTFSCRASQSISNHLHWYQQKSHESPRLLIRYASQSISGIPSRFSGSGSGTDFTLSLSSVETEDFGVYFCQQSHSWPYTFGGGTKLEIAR has a documented Maximum mean fluorescence intensity of 147
